Assay: Deliquescence Test (Experimental Example 1, salts of racemic 3-aminoquinuclidine)
Assay type: physicochemical
Conditions: about 0.5 g allowed to stand for 1 hour, 25 to 27° C., humidity of 76 to 82%, visual evaluation
reported metric: Deliquescence

Take a look at these entries with their results.
- compound: "NC1CN2CCC1CC2 (racemic)"
  Deliquescence: "Not deliquesce"
- compound: "NC1CN2CCC1CC2.O=C(O)c1ccccc1.O=C(O)c1ccccc1 (racemic) [Comparative Example 6, racemic 3-aminoquinuclidine.dibenzoate]"
  Deliquescence: "Gradually"
- compound: "CC1(C)C2CCC1(CS(=O)(=O)O)C(=O)C2.NC1CN2CCC1CC2 (racemic)"
  Deliquescence: "Not deliquesce"
- compound: "NC1CN2CCC1CC2.O=S(=O)(O)O (racemic) [Comparative Example 2, racemic 3-aminoquinuclidine.monosulfate]"
  Deliquescence: "Gradually"

Batch of 3 compounds: report Deliquescence for each.
1. Br.Br.NC1CN2CCC1CC2 (racemic)
2. NC1CN2CCC1CC2.O=C(O)/C=C\C(=O)O (racemic) [Comparative Example 7, racemic 3-aminoquinuclidine.monomaleate]
3. NC1CN2CCC1CC2.O=C(O)c1ccc(C(=O)O)cc1 (racemic)

[A]
["Gradually", "Gradually", "Not deliquesce"]

----------
Assay: Deliquescence Test (Experimental Example 3, salts of (S)-3-aminoquinuclidine)
Type: physicochemical
Settings: about 0.5 g allowed to stand for 1 hour, 24 to 26° C., humidity of 75 to 78%, visual evaluation

- compound: "Cc1ccc(S(=O)(=O)O)cc1.N[C@@H]1CN2CCC1CC2 [Example 19]"
  Deliquescence: "Not deliquesce"
- compound: "N[C@@H]1CN2CCC1CC2.O=C(O)c1ccc(C(=O)O)cc1 [Example 17]"
  Deliquescence: "Not deliquesce"

----------
Assay: Deliquescence Test (Experimental Example 2, salts of (R)-3-aminoquinuclidine)
Format: physicochemical
Details: about 0.5 g allowed to stand for 1 hour, 24 to 25° C., humidity of 74 to 76%, visual evaluation
reported metric: Deliquescence

Take a look at these entries with their results.
- molecule: "Cc1ccc(S(=O)(=O)O)cc1.N[C@H]1CN2CCC1CC2 [Example 12]"
  Deliquescence: "Not deliquesce"
- molecule: "N[C@H]1CN2CCC1CC2.O=S(=O)(O)O [Example 8, (R)-3-aminoquinuclidine.monosulfate]"
  Deliquescence: "Not deliquesce"
- molecule: "N[C@H]1CN2CCC1CC2.O=C(O)C(=O)O [Example 11, (R)-3-aminoquinuclidine.monooxalate]"
  Deliquescence: "Not deliquesce"
- molecule: "N[C@H]1CN2CCC1CC2.O=C(O)c1ccc(C(=O)O)cc1 [Example 10]"
  Deliquescence: "Not deliquesce"
- molecule: "Br.Br.N[C@H]1CN2CCC1CC2 [Comparative Example 10, (R)-3-aminoquinuclidine-dihydrobromide]"
  Deliquescence: "Gradually"
- molecule: "N[C@H]1CN2CCC1CC2.O=C(O)/C=C/C(=O)O [Example 9, (R)-3-aminoquinuclidine.monofumarate]"
  Deliquescence: "Not deliquesce"

Batch of 3 molecules: report Deliquescence for each.
1. N[C@H]1CN2CCC1CC2.N[C@H]1CN2CCC1CC2.N[C@H]1CN2CCC1CC2.O=C(O)CC(O)(CC(=O)O)C(=O)O.O=C(O)CC(O)(CC(=O)O)C(=O)O [Comparative Example 16, (R)-3-aminoquinuclidine.2/3citrate]
2. N[C@H]1CN2CCC1CC2.O=C(O)c1ccccc1.O=C(O)c1ccccc1 [Comparative Example 14, (R)-3-aminoquinuclidine.dibenzoate]
3. N[C@H]1CN2CCC1CC2.N[C@H]1CN2CCC1CC2.O=P(O)(O)O.O=P(O)(O)O.O=P(O)(O)O [Example 7, (R)-3-aminoquinuclidine.sesquiphosphate]

[A]
Immediately
Immediately
Not deliquesce

Batch of 2 molecules: report Deliquescence for each.
1. Cl.Cl.N[C@H]1CN2CCC1CC2 [Referential Example 2, (R)-3-aminoquinuclidine.dihydrochloride]
2. CCC(=O)O.N[C@H]1CN2CCC1CC2 [Comparative Example 13, (R)-3-aminoquinuclidine.monopropionate]

[A]
1. Immediately
2. Immediately

Batch of 4 molecules: report Deliquescence for each.
1. CC1(C)C2CCC1(CS(=O)(=O)O)C(=O)C2.N[C@H]1CN2CCC1CC2 (stereo not shown) [Example 13]
2. CC(=O)O.CC(=O)O.N[C@H]1CN2CCC1CC2 [Comparative Example 12, (R)-3-aminoquinuclidine.diacetate]
3. CS(=O)(=O)O.N[C@H]1CN2CCC1CC2 [Comparative Example 17, (R)-3-aminoquinuclidine.monomesylate]
4. N[C@H]1CN2CCC1CC2.O=C(O)/C=C\C(=O)O [Comparative Example 15, (R)-3-aminoquinuclidine.monomaleate]

[A]
1: Not deliquesce; 2: Immediately; 3: Gradually; 4: Gradually

[Q] Reported Deliquescence, molecule N[C@H]1CN2CCC1CC2.O=[N+]([O-])O.O=[N+]([O-])O [Comparative Example 11, (R)-3-aminoquinuclidine.dinitrate] : ____
[A] Gradually

----------
Experiment: Deliquescence Test (Experimental Example 1, salts of racemic 3-aminoquinuclidine)
Format: physicochemical
Details: about 0.5 g allowed to stand for 1 hour, 25 to 27° C., humidity of 76 to 82%, visual evaluation
reported metric: Deliquescence

Take a look at these entries with their results.
- compound: "CCC(=O)O.NC1CN2CCC1CC2 (racemic)"
  Deliquescence: "Immediately"
- compound: "NC1CN2CCC1CC2.NC1CN2CCC1CC2.NC1CN2CCC1CC2.O=C(O)CC(O)(CC(=O)O)C(=O)O.O=C(O)CC(O)(CC(=O)O)C(=O)O (racemic) [Comparative Example 8, racemic 3-aminoquinuclidine.2/3 citrate]"
  Deliquescence: "Immediately"
- compound: "Cl.Cl.NC1CN2CCC1CC2 (racemic)"
  Deliquescence: "Immediately"
- compound: "NC1CN2CCC1CC2.O=C(O)/C=C/C(=O)O (racemic) [Example 2, racemic 3-aminoquinuclidine.monofumarate]"
  Deliquescence: "Not deliquesce"
- compound: "CS(=O)(=O)O.NC1CN2CCC1CC2 (racemic) [Comparative Example 9, racemic 3-aminoquinuclidine.monomesylate]"
  Deliquescence: "Gradually"

Batch of 4 compounds: report Deliquescence for each.
1. Cc1ccc(S(=O)(=O)O)cc1.NC1CN2CCC1CC2 (racemic)
2. NC1CN2CCC1CC2.O=C(O)C(=O)O (racemic) [Example 4, racemic 3-aminoquinuclidine.monooxalate]
3. NC1CN2CCC1CC2.O=[N+]([O-])O.O=[N+]([O-])O (racemic) [Comparative Example 3, racemic 3-aminoquinuclidine.dinitrate]
4. CC(=O)O.CC(=O)O.NC1CN2CCC1CC2 (racemic) [Comparative Example 4, racemic 3-aminoquinuclidine.diacetate]

[A]
1. Not deliquesce
2. Not deliquesce
3. Gradually
4. Immediately
